# Test system: CAL-51
# METHOD SUMMARY: drug sensitivity score (DSS), CellTiter-Glo (DSS (AUC-based score)); higher = stronger drug effect (viability inhibition or cytotoxicity); extreme values may be limits of the assay
# EXPERIMENTAL CONTEXT: incubation time: 72 h
MEASUREMENT LABEL: drug sensitivity score

O=C(O)CC[C@H]1CC[C@@](c2cc(F)ccc2F)(S(=O)(=O)c2ccc(Cl)cc2)CC1 [MK-0752]: 0
O=C(c1cc(Cc2n[nH]c(=O)c3ccccc23)ccc1F)N1CCN(C(=O)C2CC2)CC1 [Olaparib]: 10.1
C[C@@H](C(=O)O)c1ccc(-c2ccccc2)c(F)c1 [Tarenflurbil]: 0
Nc1nc(Cl)nc2c1ncn2[C@@H]1O[C@H](CO)[C@@H](O)[C@@H]1F [Clofarabine]: 17.6
Cn1nnc2c(C(N)=O)ncn2c1=O [Temozolomide]: 0
NC(=O)NO [Hydroxyurea]: 16.2

---

# System: MDA-MB-468
# METHOD SUMMARY: normalised response (% of control), CellTiter-Glo; higher = more viable cells (100 = DMSO, 0 = benzethonium chloride kill control)
# EXPERIMENTAL CONTEXT: incubation time: 72 h
MEASUREMENT LABEL: normalised response (%)

CN1CCN(c2nc(C3=C(c4c[nH]c5ccccc45)C(=O)NC3=O)c3ccccc3n2)CC1 [Sotrastaurin] (1000 nM): 91.6
Cn1nnc2c(C(N)=O)ncn2c1=O [Temozolomide] (1000 nM): 91.8
COc1cc2c(N3CCN(C(=O)Nc4ccc(OC(C)C)cc4)CC3)ncnc2cc1OCCCN1CCCCC1 [Tandutinib] (1 nM): 102
COc1cc2c(cc1-c1c(C)noc1C)ncc1[nH]c(=O)n([C@H](C)c3ccccn3)c12 [I-BET151] (1 nM): 95.9
O=NN(CCCl)C(=O)NC1CCCCC1 [Lomustine] (1 nM): 99.3
O=C(O)CC[C@H]1CC[C@@](c2cc(F)ccc2F)(S(=O)(=O)c2ccc(Cl)cc2)CC1 [MK-0752] (0.1 nM): 102
COc1cc2c(N3CCN(C(=O)Nc4ccc(OC(C)C)cc4)CC3)ncnc2cc1OCCCN1CCCCC1 [Tandutinib] (0.1 nM): 104
CC[C@H](CC#N)OC(=O)N[C@@H](C)c1cccc(NC(=O)Nc2ccc(-c3cnco3)c(OC)c2)c1 [AVN944] (1000 nM): 37.5
O=C(c1cc(Cc2n[nH]c(=O)c3ccccc23)ccc1F)N1CCN(C(=O)C2CC2)CC1 [Olaparib] (1 nM): 99
CO[C@H]1C[C@@H]2CC[C@@H](C)[C@@](O)(O2)C(=O)C(=O)N2CCCC[C@H]2C(=O)O[C@H]([C@H](C)C[C@@H]2CC[C@@H](O)[C@H](OC)C2)CC(=O)[C@H](C)/C=C(\C)[C@@H](O)[C@@H](OC)C(=O)[C@H](C)C[C@H](C)/C=C/C=C/C=C/1C [Sirolimus] (10 nM): 51.8
C[C@@H]1C[C@H]2[C@@H]3CCC4=CC(=O)C=C[C@]4(C)[C@@]3(F)[C@@H](O)C[C@]2(C)[C@@]1(O)C(=O)CO [Dexamethasone] (1 nM): 94.6
NC(=O)c1cccc2cn(-c3ccc([C@@H]4CCCNC4)cc3)nc12 [MK-4827] (10 nM): 98.6
NC1(c2ccc(-c3nc4ccn5c(=O)[nH]nc5c4cc3-c3ccccc3)cc2)CCC1 [MK-2206] (100 nM): 94.6
CCN(CC)CCOc1ccc(C(=C(Cl)c2ccccc2)c2ccccc2)cc1 [Clomifene] (10 nM): 99.2

---

# System: CAL-51
# EXPERIMENTAL CONTEXT: 72 h
MEASUREMENT LABEL: EC50, CellTiter-Glo

COc1cc2c(Oc3ccc(NC(=O)C4(C(=O)Nc5ccc(F)cc5)CC4)cc3F)ccnc2cc1OCCCN1CCOCC1 [Foretinib]: 0.49 µM
Cc1c(N)nc([C@H](CC(N)=O)NC[C@H](N)C(N)=O)nc1C(=O)N[C@H](C(=O)N[C@H](C)[C@@H](O)[C@H](C)C(=O)N[C@H](C(=O)NCCc1nc(-c2nc(C(=O)NCCC[S+](C)C)cs2)cs1)[C@@H](C)O)[C@@H](OC1OC(CO)C(O)C(O)C1OC1OC(CO)C(O)C(OC(N)=O)C1O)c1cnc[nH]1 (stereo partly specified) [Bleomycin]: 0.0499 µM
CCc1cnn2c(NCc3ccc[n+]([O-])c3)cc(N3CCCC[C@H]3CCO)nc12 [Dinaciclib]: 0.0128 µM
O=C(c1cc(Cc2n[nH]c(=O)c3ccccc23)ccc1F)N1CCN(C(=O)C2CC2)CC1 [Olaparib]: 0.0454 µM
N[C@@H](Cc1ccc(N(CCCl)CCCl)cc1)C(=O)O [Melphalan]: 0.182 µM
CC(C)n1nc(-c2ccc3oc(N)nc3c2)c2c(N)ncnc21 [INK128]: 0.0159 µM

---

# System: MDA-MB-468
# METHOD SUMMARY: normalised response (% of control), CellTiter-Glo; higher = more viable cells (100 = DMSO, 0 = benzethonium chloride kill control)
# EXPERIMENTAL CONTEXT: incubation time: 72 h
The molecules listed here are annotated with their normalised response.
MEASUREMENT LABEL: normalised response (%)

COc1cc2c(N3CCN(C(=O)Nc4ccc(OC(C)C)cc4)CC3)ncnc2cc1OCCCN1CCCCC1 [Tandutinib] (10 nM): 103
CCCCCOC(=O)Nc1nc(=O)n([C@@H]2O[C@H](C)[C@@H](O)[C@H]2O)cc1F [Capecitabine] (100 nM): 103
CC(C)n1nc(-c2ccc3oc(N)nc3c2)c2c(N)ncnc21 [INK128] (10 nM): 81.2
COc1cc2c(cc1-c1c(C)noc1C)ncc1[nH]c(=O)n([C@H](C)c3ccccn3)c12 [I-BET151] (100 nM): 98.9
COc1cc2c(Oc3ccc(NC(=O)C4(C(=O)Nc5ccc(F)cc5)CC4)cc3F)ccnc2cc1OCCCN1CCOCC1 [Foretinib] (10 nM): 104
CN1CCN(c2nc(C3=C(c4c[nH]c5ccccc45)C(=O)NC3=O)c3ccccc3n2)CC1 [Sotrastaurin] (100 nM): 99.3
O=NN(CCCl)C(=O)NC1CCCCC1 [Lomustine] (100 nM): 96.1
CC(C)C[C@H](NC(=O)[C@H](CCc1ccccc1)NC(=O)CN1CCOCC1)C(=O)N[C@@H](Cc1ccccc1)C(=O)N[C@@H](CC(C)C)C(=O)[C@@]1(C)CO1 [Carfilzomib] (10 nM): 0.56
C[C@@H](C(=O)O)c1ccc(-c2ccccc2)c(F)c1 [Tarenflurbil] (100 nM): 96.4
Cc1c(C(=O)Nc2ccc(N3C[C@@H](C)O[C@@H](C)C3)nc2)cccc1-c1ccc(OC(F)(F)F)cc1 [Erismodegib] (100 nM): 90.4
Cc1c(N)nc([C@H](CC(N)=O)NC[C@H](N)C(N)=O)nc1C(=O)N[C@H](C(=O)N[C@H](C)[C@@H](O)[C@H](C)C(=O)N[C@H](C(=O)NCCc1nc(-c2nc(C(=O)NCCC[S+](C)C)cs2)cs1)[C@@H](C)O)[C@@H](OC1OC(CO)C(O)C(O)C1OC1OC(CO)C(O)C(OC(N)=O)C1O)c1cnc[nH]1 (stereo partly specified) [Bleomycin] (100 nM): 80.4

---

# Tested on: HDQ-P1
# METHOD SUMMARY: normalised viability (% of control), CellTiter-Blue; higher = more viable cells (about 100 = DMSO control)
# EXPERIMENTAL CONTEXT: incubation time: 72 h
# normalised viability values compiled below
MEASUREMENT LABEL: normalised viability (%)

CC(C)C(=O)Nc1ccc([N+](=O)[O-])c(C(F)(F)F)c1 [Flutamide] (3000 nM): 98.8
C[C@@H](CN1CC(=O)NC(=O)C1)N1CC(=O)NC(=O)C1 [Dexrazoxane] (3000 nM): 98.1
NC(=O)NO [Hydroxyurea] (30000 nM): 104
NC1(c2ccc(-c3nc4ccn5c(=O)[nH]nc5c4cc3-c3ccccc3)cc2)CCC1 [MK-2206] (300 nM): 77.5
C[C@@H](C(=O)O)c1ccc(-c2ccccc2)c(F)c1 [Tarenflurbil] (3000 nM): 93
CC[C@@H]1C(=O)N(C)c2cnc(Nc3ccc(C(=O)N[C@H]4CC[C@H](N5CCN(CC6CC6)CC5)CC4)cc3OC)nc2N1C(C)C [Volasertib] (300 nM): 59.4

---

Reported normalised response values are given for each entry in this list.
# System: BT-474
# METHOD SUMMARY: normalised response (% of control), CellTiter-Glo; higher = more viable cells (100 = DMSO, 0 = benzethonium chloride kill control)
# EXPERIMENTAL CONTEXT: incubation time: 72 h
MEASUREMENT LABEL: normalised response

COc1cc2c(Oc3ccc(NC(=O)C4(C(=O)Nc5ccc(F)cc5)CC4)cc3F)ccnc2cc1OCCCN1CCOCC1 [Foretinib] (10 nM): 102%
CCc1cnn2c(NCc3ccc[n+]([O-])c3)cc(N3CCCC[C@H]3CCO)nc12 [Dinaciclib] (10 nM): 67.7%
CCc1c(C(=O)C(N)=O)c2c(OCC(=O)O)cccc2n1Cc1ccccc1 [Varespladib] (100 nM): 98%
C[C@@H](C(=O)O)c1ccc(-c2ccccc2)c(F)c1 [Tarenflurbil] (100 nM): 101%
CCN(CC)CCOc1ccc(C(=C(Cl)c2ccccc2)c2ccccc2)cc1 [Clomifene] (100 nM): 105%
CCCCCOC(=O)Nc1nc(=O)n([C@@H]2O[C@H](C)[C@@H](O)[C@H]2O)cc1F [Capecitabine] (100 nM): 98.7%
Cc1cc2c(F)c(Oc3ncnn4cc(OC[C@@H](C)O)c(C)c34)ccc2[nH]1 [Brivanib] (10 nM): 105%
COc1cc2c(cc1-c1c(C)noc1C)ncc1[nH]c(=O)n([C@H](C)c3ccccn3)c12 [I-BET151] (100 nM): 89.6%
Cn1cc(C[C@@H](N)C(=O)O)c2ccccc21 [1-methyl-D-tryptophan] (50 nM): 103%
N[C@@H](Cc1ccc(N(CCCl)CCCl)cc1)C(=O)O [Melphalan] (125 nM): 91.5%
Cc1c(C(=O)Nc2ccc(N3C[C@@H](C)O[C@@H](C)C3)nc2)cccc1-c1ccc(OC(F)(F)F)cc1 [Erismodegib] (100 nM): 91.2%
O=C(O)CC[C@H]1CC[C@@](c2cc(F)ccc2F)(S(=O)(=O)c2ccc(Cl)cc2)CC1 [MK-0752] (10 nM): 105%
CO[C@H](C(=O)[C@@H](O)[C@@H](C)O)[C@@H]1Cc2cc3cc(O[C@H]4C[C@@H](O[C@@H]5C[C@@H](O)[C@H](O)[C@@H](C)O5)[C@H](O)[C@@H](C)O4)c(C)c(O)c3c(O)c2C(=O)[C@H]1O[C@H]1C[C@@H](O[C@@H]2C[C@@H](O)[C@@H](O[C@@H]3C[C@](C)(O)[C@H](O)[C@@H](C)O3)[C@@H](C)O2)[C@H](O)[C@@H](C)O1 [Plicamycin] (100 nM): 100%
C[C@]12C=CC(=O)C=C1CC[C@@H]1[C@@H]2C(=O)C[C@@]2(C)[C@H]1CC[C@]2(O)C(=O)CO [Prednisone] (100 nM): 107%
